experimental system: T1, EsCas13d, nuclease-dead (Eubacterium siraeum, UniProt B0MS50, R295A;H300A;R849A;H854A)
T1 sequence: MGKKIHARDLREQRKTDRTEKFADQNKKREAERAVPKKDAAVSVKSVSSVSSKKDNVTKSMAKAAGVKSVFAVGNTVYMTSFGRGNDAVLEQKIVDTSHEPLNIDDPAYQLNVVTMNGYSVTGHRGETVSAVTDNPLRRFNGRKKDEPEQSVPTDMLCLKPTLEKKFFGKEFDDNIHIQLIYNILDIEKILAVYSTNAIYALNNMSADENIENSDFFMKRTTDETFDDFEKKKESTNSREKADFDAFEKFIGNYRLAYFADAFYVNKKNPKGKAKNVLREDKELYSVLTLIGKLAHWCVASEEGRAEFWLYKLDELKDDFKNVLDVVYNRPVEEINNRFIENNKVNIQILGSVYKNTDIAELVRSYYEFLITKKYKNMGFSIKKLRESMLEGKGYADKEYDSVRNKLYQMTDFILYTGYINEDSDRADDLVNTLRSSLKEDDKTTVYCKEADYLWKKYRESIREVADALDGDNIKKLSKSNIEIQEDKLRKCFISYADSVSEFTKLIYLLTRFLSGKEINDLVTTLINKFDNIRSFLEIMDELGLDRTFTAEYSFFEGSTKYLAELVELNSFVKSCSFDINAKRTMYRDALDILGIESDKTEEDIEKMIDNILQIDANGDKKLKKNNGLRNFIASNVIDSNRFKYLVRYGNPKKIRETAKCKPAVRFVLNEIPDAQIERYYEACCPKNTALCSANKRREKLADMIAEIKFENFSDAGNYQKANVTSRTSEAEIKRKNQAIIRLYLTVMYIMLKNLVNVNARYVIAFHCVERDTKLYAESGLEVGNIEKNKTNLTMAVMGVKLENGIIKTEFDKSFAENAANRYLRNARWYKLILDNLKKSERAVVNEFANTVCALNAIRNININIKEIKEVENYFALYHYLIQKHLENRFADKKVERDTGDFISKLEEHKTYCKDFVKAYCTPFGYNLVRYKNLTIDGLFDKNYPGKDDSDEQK
experimental protocol: crRNA (strand 1, pre-loaded); Mg2+; 40 mM Tris-HCl pH 7.5, 150 mM NaCl, 6 mM MgCl2, 1 mM DTT, 0.1% Tween-20, 0.2 mg/ml BSA; 25 C; 10 min per concentration, then washed
condition label: tags: His6-TwinStrep-SUMO cleaved; N-terminal SNAP kept (SNAP-Surface 488); label: 3' end held by stalled T7 RNA polymerase
# Lookup of reported Kd keyed by entry
In your response, the unit should come after the numeric value.

Some binders with recorded Kd:
target 2 MT 5'PFS AAG 3'PFS ACG (mixed) RNA 1: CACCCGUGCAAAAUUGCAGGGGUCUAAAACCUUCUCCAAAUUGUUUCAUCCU RNA 2: GGGAAUGGAUCCACAUCUACGAAUUCAAGAGGAUGAAACAAUUUGGAGAAGACGAGAUCGGAAGAGCACACGU | 5.1 nM
target 2 MT 5'PFS AUU 3'PFS CUC (mixed) RNA 1: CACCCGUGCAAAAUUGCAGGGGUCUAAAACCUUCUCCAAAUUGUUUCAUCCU RNA 2: GGGAAUGGAUCCACAUCUACGAAUUCAUUAGGAUGAAACAAUUUGGAGAAGCUCAGAUCGGAAGAGCACACGU | 16.6 nM
target 3 insC 3' of 8,insG 3' of 5 (mixed) RNA 1: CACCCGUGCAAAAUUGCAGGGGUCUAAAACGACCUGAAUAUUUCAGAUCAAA RNA 2: GGGAAUGGAUCCACAUCUACGAAUUCGUUUUUGAUCUGAAAUAUCUCAGGGUCUGCAGAUCGGAAGAGCACACGU | 120 nM
target 1 MT 5'PFS UUA 3'PFS UCA (mixed) RNA 1: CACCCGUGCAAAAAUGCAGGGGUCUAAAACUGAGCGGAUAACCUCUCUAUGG RNA 2: GGGAAUGGAUCCACAUCUACGAAUUCUUACCAUAGAGAGGUUAUCCGCUCAUCAAGAUCGGAAGAGCACACGU | 25 nM
target 1 insU 3' of 13,insA 3' of 6 (mixed) RNA 1: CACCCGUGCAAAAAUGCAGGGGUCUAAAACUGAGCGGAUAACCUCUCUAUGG RNA 2: GGGAAUGGAUCCACAUCUACGAAUUCGUACCAUAGAGAGUGUUAUCCAGCUCACCGAGAUCGGAAGAGCACACGU | 33.9 nM
target 1 insU 3' of 20,insU 3' of 12 (mixed) RNA 1: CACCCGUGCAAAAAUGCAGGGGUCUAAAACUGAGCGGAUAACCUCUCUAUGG RNA 2: GGGAAUGGAUCCACAUCUACGAAUUCGUACCAUUAGAGAGGUUUAUCCGCUCACCGAGAUCGGAAGAGCACACGU | 11.5 nM
target 3 insU 3' of 5,insC 3' of 3 (mixed) RNA 1: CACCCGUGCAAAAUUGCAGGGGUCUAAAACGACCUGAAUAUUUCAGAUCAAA RNA 2: GGGAAUGGAUCCACAUCUACGAAUUCGUUUUUGAUCUGAAAUAUUCAUGGCUCUGCAGAUCGGAAGAGCACACGU | 10.9 nM

Now consider a different binder.
Problem: Entry target 1 MT 5'PFS AAA 3'PFS UUG (mixed) RNA 1: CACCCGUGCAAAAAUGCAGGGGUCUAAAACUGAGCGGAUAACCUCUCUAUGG RNA 2: GGGAAUGGAUCCACAUCUACGAAUUCAAACCAUAGAGAGGUUAUCCGCUCAUUGAGAUCGGAAGAGCACACGU : reported Kd = ?
Solution: 11.7 nM
